- Test system: RARa:RXR (NR concentration 270 nM, RXRa partner concentration 90 nM)
- test.name: PBM binding z-score (relative to random genomic background probes); higher = stronger binding; sequences stand for … in GC…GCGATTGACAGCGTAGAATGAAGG
Entry class follows PBM binding z-score: band A = under 1, band B = from 1 up to 3, band C = 3 and over

{"sequence.data": "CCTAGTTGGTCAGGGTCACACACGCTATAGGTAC", "class": "band C"}
{"sequence.data": "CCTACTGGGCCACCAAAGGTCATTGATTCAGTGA", "class": "band C"}
{"sequence.data": "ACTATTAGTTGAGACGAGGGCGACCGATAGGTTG", "class": "band A"}
{"sequence.data": "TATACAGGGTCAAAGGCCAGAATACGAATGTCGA", "class": "band C"}
{"sequence.data": "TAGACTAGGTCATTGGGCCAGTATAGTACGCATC", "class": "band B"}
{"sequence.data": "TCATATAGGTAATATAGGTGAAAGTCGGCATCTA", "class": "band B"}
{"sequence.data": "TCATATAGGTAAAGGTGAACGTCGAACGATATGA", "class": "band B"}
{"sequence.data": "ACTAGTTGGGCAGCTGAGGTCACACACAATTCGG", "class": "band C"}

Challenge: Please indicate the class for "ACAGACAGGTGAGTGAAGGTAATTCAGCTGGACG" based on its PBM binding z-score.
Response given: band A

Challenge: Please indicate the class for "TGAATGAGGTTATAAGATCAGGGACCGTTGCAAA" based on its PBM binding z-score.
Response given: band B

Challenge: Please indicate the class for "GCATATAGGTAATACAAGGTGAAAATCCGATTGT" based on its PBM binding z-score.
Response given: band B

Challenge: Please indicate the class for "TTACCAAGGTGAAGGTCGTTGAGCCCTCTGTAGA" based on its PBM binding z-score.
Response given: band B

Challenge: Please indicate the class for "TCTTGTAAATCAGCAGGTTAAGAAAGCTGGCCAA" based on its PBM binding z-score.
Response given: band A

Challenge: Please indicate the class for "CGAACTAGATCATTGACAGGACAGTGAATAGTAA" based on its PBM binding z-score.
Response given: band A

====

This section presents sequences with their documented PBM binding z-score values.
- System: PPARa:RXRa (NR concentration 270 nM, RXRa partner concentration 90 nM)
- test.name: PBM binding z-score (relative to random genomic background probes); higher = stronger binding; sequences stand for … in GC…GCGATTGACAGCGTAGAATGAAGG
Answer field: number only, no words.

{"sequence.data": "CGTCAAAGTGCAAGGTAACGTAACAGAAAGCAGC", "parameter": "PBM binding z-score", "test.value": 0.731}
{"sequence.data": "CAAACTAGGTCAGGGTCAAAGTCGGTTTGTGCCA", "parameter": "PBM binding z-score", "test.value": 6.05}
{"sequence.data": "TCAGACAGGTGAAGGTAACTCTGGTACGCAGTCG", "parameter": "PBM binding z-score", "test.value": 1.23}

Challenge: If you can, please state the reported PBM binding z-score value of "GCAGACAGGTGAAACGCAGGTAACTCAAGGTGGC" .
Response given: 0.892

Challenge: If you can, please state the reported PBM binding z-score value of "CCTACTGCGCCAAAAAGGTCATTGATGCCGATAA" .
Response given: 4.78

Challenge: If you can, please state the reported PBM binding z-score value of "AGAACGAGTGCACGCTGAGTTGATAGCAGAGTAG" .
Response given: 0.0263

Challenge: If you can, please state the reported PBM binding z-score value of "TCATATAGGTAAATGCTAGGTGAATGTCCGATCT" .
Response given: 1.39

Challenge: If you can, please state the reported PBM binding z-score value of "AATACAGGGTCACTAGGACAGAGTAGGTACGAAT" .
Response given: 5.77

Challenge: If you can, please state the reported PBM binding z-score value of "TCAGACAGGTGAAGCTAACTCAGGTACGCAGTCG" .
Response given: 0.744

Challenge: If you can, please state the reported PBM binding z-score value of "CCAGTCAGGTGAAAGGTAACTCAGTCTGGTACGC" .
Response given: 3.61

Challenge: If you can, please state the reported PBM binding z-score value of "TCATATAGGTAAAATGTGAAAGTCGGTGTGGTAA" .
Response given: 2.27
